- Test system: Human diploid fibroblasts HCA
- assay_name: Anti-aging activity: senescence-associated beta-galactosidase in human fibroblasts
- Format: cell-based
- condition_info: passage 80, cells expressing senescence-associated beta-galactosidase
- Method: In this example, effects of the compounds of this invention on the activity of a senescence biomarker senescence-associated β-galactosidase was studied. Human diploid fibroblasts HCA of various passage levels were used for this purpose. The tested compounds were added to the medium at each passage. […] Following the incubation period, the numbers of cells expressing senescence-associated β-galactosidase (blue cells) were counted using light microscope.
Give measured Senescent Cells (%) HCA passage 80 for each item. Keep answers brief.
Give the number first and the unit second.

State its Senescent Cells (%) HCA passage 80: COc1cccc(Nc2nc(F)nc3nc[nH]c23)c1 [2-fluoro-6-(3-methoxyanilino)purine]
29%

State its Senescent Cells (%) HCA passage 80: COc1ccc(Nc2nc(Cl)nc3nc[nH]c23)cc1 [2-chloro-6-(4-methoxyanilino)purine]
26%

State its Senescent Cells (%) HCA passage 80: Nc1nc(Nc2ccc(O)cc2)c2nc[nH]c2n1 [2-amino-(4-hydroanilino)purine]
21%

State its Senescent Cells (%) HCA passage 80: CSc1nc(Nc2ccc(O)cc2)c2[nH]cnc2n1 [2-methylthio-6-(4-hydroxyanilino)purine]
34%

State its Senescent Cells (%) HCA passage 80: COc1cccc(Nc2nc(N)nc3nc[nH]c23)c1 [2-amino-6-(3-methoxyanilino)purine]
22%

State its Senescent Cells (%) HCA passage 80: COc1cccc(Nc2nc(Cl)nc3nc[nH]c23)c1 [2-chloro-6-(3-methoxyanilino)purine]
24%

====

Give measured Activity (%) [10^−5 mol · l^−1 K = 100%] for each item. Keep answers brief.
- System: cytokinin-dependent tobacco callus Nicotiana tabacum L. cv. Wisconsin 38
- assay_name: Tobacco callus biotest (plant cell division)
- Type: cell-based
- condition_info: at the concentration with highest activity, relative to 10^−5 M kinetin
Give the number first and the unit second.

// fetch Activity (%) [10^−5 mol · l^−1 K = 100%]; item: Fc1cccc(Nc2nc(Cl)nc3nc[nH]c23)c1 ; system: cytokinin-dependent tobacco callus Nicotiana tabacum L. cv. Wisconsin 38
119.7%

// fetch Activity (%) [10^−5 mol · l^−1 K = 100%]; item: COc1cccc(Nc2nc(SC)nc3[nH]cnc23)c1 ; system: cytokinin-dependent tobacco callus Nicotiana tabacum L. cv. Wisconsin 38
142.8%

// fetch Activity (%) [10^−5 mol · l^−1 K = 100%]; item: Fc1nc(Nc2cccc(Cl)c2)c2nc[nH]c2n1 ; system: cytokinin-dependent tobacco callus Nicotiana tabacum L. cv. Wisconsin 38
121%

// fetch Activity (%) [10^−5 mol · l^−1 K = 100%]; item: CSc1nc(Nc2cccc(Cl)c2)c2nc[nH]c2n1 ; system: cytokinin-dependent tobacco callus Nicotiana tabacum L. cv. Wisconsin 38
121.2%

// fetch Activity (%) [10^−5 mol · l^−1 K = 100%]; item: Fc1cccc(Nc2nc(F)nc3[nH]cnc23)c1 ; system: cytokinin-dependent tobacco callus Nicotiana tabacum L. cv. Wisconsin 38
127.9%

// fetch Activity (%) [10^−5 mol · l^−1 K = 100%]; item: CSc1nc(Nc2cccc(F)c2)c2nc[nH]c2n1 ; system: cytokinin-dependent tobacco callus Nicotiana tabacum L. cv. Wisconsin 38
130.3%

====

- System: Amaranthus caudatus cotyledon/hypocotyl explants
- assay_name: Amaranthus bioassay (betacyanin content)
- Type: cell-based, Amaranthus caudatus var. atropurpurea
- condition_info: at the concentration with highest activity, relative to 10^−5 M kinetin
- Experimental: The standard Amaranthus bioassay was performed with the following modifications. The seeds of Amaranthus caudatus var. atropurpurea were surface-sterilised in 10% (w/v) N-chlorobenzenesulfonamide for 10 min and washed 5 times with deionized water. They were placed in 15 cm Petri dishes containing paper tissues saturated with deionized water. […] The concentration of betacyanin was determined from the absorbances at 537 nm and 620 nm as follows: ΔA=A537nm−A620nm. […]
measured_metric: Activity (%) [10^−5 mol · l^−1 K = 100%]
Give just the number in %; leave the unit off.

// fetch Activity (%) [10^−5 mol · l^−1 K = 100%]; item: Fc1nc(Nc2cccc(Cl)c2)c2nc[nH]c2n1 ; system: Amaranthus caudatus cotyledon/hypocotyl explants
121

// fetch Activity (%) [10^−5 mol · l^−1 K = 100%]; item: COc1cccc(Nc2nc(S)nc3[nH]cnc23)c1 ; system: Amaranthus caudatus cotyledon/hypocotyl explants
113.4

// fetch Activity (%) [10^−5 mol · l^−1 K = 100%]; item: Clc1cccc(Nc2nc(Cl)nc3nc[nH]c23)c1 ; system: Amaranthus caudatus cotyledon/hypocotyl explants
166

// fetch Activity (%) [10^−5 mol · l^−1 K = 100%]; item: Oc1cccc(Nc2nc(Cl)nc3nc[nH]c23)c1 [Compound 9, 2-Chloro-6-(3-hydroxyanilino)purine] ; system: Amaranthus caudatus cotyledon/hypocotyl explants
115.4

// fetch Activity (%) [10^−5 mol · l^−1 K = 100%]; item: COc1ccccc1Nc1nc(F)nc2[nH]cnc12 ; system: Amaranthus caudatus cotyledon/hypocotyl explants
105.2

// fetch Activity (%) [10^−5 mol · l^−1 K = 100%]; item: COc1cccc(Nc2nc(SC)nc3[nH]cnc23)c1 ; system: Amaranthus caudatus cotyledon/hypocotyl explants
156.4

// fetch Activity (%) [10^−5 mol · l^−1 K = 100%]; item: Nc1nc(Nc2ccc(F)cc2)c2nc[nH]c2n1 ; system: Amaranthus caudatus cotyledon/hypocotyl explants
136

// fetch Activity (%) [10^−5 mol · l^−1 K = 100%]; item: COc1cccc(Nc2nc(F)nc3nc[nH]c23)c1 ; system: Amaranthus caudatus cotyledon/hypocotyl explants
117.2

// fetch Activity (%) [10^−5 mol · l^−1 K = 100%]; item: Clc1ccc(Nc2nc(Cl)nc3[nH]cnc23)cc1 ; system: Amaranthus caudatus cotyledon/hypocotyl explants
107

// fetch Activity (%) [10^−5 mol · l^−1 K = 100%]; item: Fc1cccc(Nc2nc(Cl)nc3nc[nH]c23)c1 ; system: Amaranthus caudatus cotyledon/hypocotyl explants
120

// fetch Activity (%) [10^−5 mol · l^−1 K = 100%]; item: Cc1nc(Nc2cccc(F)c2)c2nc[nH]c2n1 ; system: Amaranthus caudatus cotyledon/hypocotyl explants
120.2

// fetch Activity (%) [10^−5 mol · l^−1 K = 100%]; item: Sc1nc(Nc2ccc(Cl)cc2)c2nc[nH]c2n1 ; system: Amaranthus caudatus cotyledon/hypocotyl explants
122.9

// fetch Activity (%) [10^−5 mol · l^−1 K = 100%]; item: Nc1nc(Nc2ccccc2)c2nc[nH]c2n1 ; system: Amaranthus caudatus cotyledon/hypocotyl explants
125.2
